- System: LT12 tumor cell line
- assay-notes: Antiproliferative activity against LT12 phenotype LT12 MDR tumor cell line
- Assay type: functional, cell-based
- test-context: Rattus norvegicus
Hi! Could you tag entries with IC50 below 200 nM as class 1, and those at or above as class 0? Much appreciated.

Criterion: IC50 strictly below 200 nM. Is it met by COc1ccc(C=C2c3ccccc3C(=O)c3ccccc32)cc1O ?
class 1

Criterion: IC50 strictly below 200 nM. Is it met by CC(=O)O[C@H]1C(=O)[C@@]2(C)[C@H]([C@H](OC(=O)c3ccccc3)[C@]3(O)C[C@H](OC(=O)[C@H](O)[C@@H](NC(=O)c4ccccc4)c4ccccc4)C(C)=C1C3(C)C)[C@]1(OC(C)=O)CO[C@@H]1C[C@@H]2O ?
class 0

Criterion: IC50 strictly below 200 nM. Is it met by COc1ccc(C=C2c3ccccc3C(=O)c3ccccc32)c(OC)c1O ?
class 1

Criterion: IC50 strictly below 200 nM. Is it met by CC[C@]1(O)C[C@@H]2CN(CCc3c([nH]c4ccccc34)[C@@](C(=O)OC)(c3cc4c(cc3OC)N(C)[C@H]3[C@@](O)(C(N)=O)[C@H](O)[C@]5(CC)C=CCN6CC[C@]43[C@@H]65)C2)C1 ?
class 0

Criterion: IC50 strictly below 200 nM. Is it met by COC(=O)Nc1nc2cc(C(=O)c3cccs3)ccc2[nH]1 ?
class 1

This collection of values is drawn from ChEMBL document CHEMBL1136796.
